- method.description: Therapeutic index, ratio of CC50 for human MT2 cells to EC50 for recombinant HIV1 expressing Rep-Rluc Sac II
- Assay type: cell-based
- settings: read-out: Ratio CC50/EC50
Collected selectivity ratio values appear next to each entry.

# structure.smiles.string, modifier, selectivity ratio
measured = [
    ("C=C1CC[C@@H]2C(C)(C)[C@@H](Br)CC[C@]2(C)[C@H]1Cc1cc(O)c(C=O)cc1O", "=", 8),
    ("CC1(C)[C@@H](Br)CC[C@@]2(C)[C@H]1CC[C@@]1(C)OC(=O)OC[C@@H]21", "=", 23),
    ("O=Cc1cc(O)c(CC2CCCCC2)cc1O", ">", 25),
    ("CC1=CC[C@H]2C(C)(C)[C@@H](Br)CC[C@]2(C)[C@@H]1Cc1cc(O)c(CC(=O)O)cc1O", ">", 2),
    ("CC(=O)OC[C@@H]1[C@@]2(C)CC[C@H](Br)C(C)(C)[C@@H]2CC[C@@]1(C)O", "=", 3),
    ("CC1(C)[C@@H](Cl)CC[C@@]2(C)[C@H]1CC[C@@]1(C)OC(=O)OC[C@@H]21", "=", 4),
    ("CC1(C)[C@@H](Br)CC[C@@]2(C)[C@H]1CC[C@@]1(C)Oc3cc(C=O)c(O)cc3C[C@@H]21", "=", 5),
    ("C=C1CC[C@@H]2C(C)(C)[C@@H](Br)CC[C@]2(C)[C@@H]1Cc1cc(O)c(C=O)cc1O", "=", 7),
    ("CC1(C)[C@H]2CC[C@]3(C)OC(=O)OC[C@@H]3[C@@]2(C)CC[C@@H]1Br", "=", 9),
    ("CC(=O)OC[C@H]1[C@@]2(C)CC[C@H](Br)C(C)(C)[C@@H]2CC[C@@]1(C)O", "=", 8),
    ("CC1(C)[C@@H](I)CC[C@@]2(C)[C@H]1CC[C@@]1(C)OC(=O)OC[C@@H]21", "=", 6),
    ("CC1=C(Cc2cc(O)c(C=O)cc2O)[C@@]2(C)CC[C@H](Br)C(C)(C)[C@@H]2CC1", "=", 5),
    ("CC1(C)CCC[C@@]2(C)[C@H]1CC[C@@]1(C)OC(=O)OC[C@@H]21", "=", 17),
    ("C=C1CC[C@H]2C(C)(C)[C@@H](Br)CC[C@]2(C)[C@H]1Cc1cc(O)c(C=O)cc1O", "=", 4),
    ("CC1(C)[C@@H](Br)CC[C@]2(C)[C@H]3COC(=O)O[C@]3(C)CC[C@@H]12", ">", 10),
    ("CC1=CC[C@H]2C(C)(C)[C@@H](Br)CC[C@]2(C)[C@@H]1Cc1cc(O)c(C=O)cc1O", "=", 4),
    ("CC(=O)OC[C@@H]1[C@@]2(C)CC[C@H](Br)C(C)(C)[C@H]2CC[C@]1(C)O", "=", 3),
    ("Cc1cc(O)c(C=O)cc1O", "=", 3),
]

====

- method.description: Therapeutic index, ratio of CC50 for human MT2 cells to EC50 for recombinant HIV1 expressing Rep-Rluc Sac II
- Assay type: cell-based
- settings: read-out: Ratio CC50/EC50

# structure.smiles.string, modifier, selectivity ratio
measured = [
    ("C=C1CC[C@H]2C(C)(C)[C@@H](Br)CC[C@]2(C)[C@@H]1Cc1cc(O)c(C=O)cc1O", "=", 4),
    ("CC1(C)[C@H]2CC[C@]3(C)OC(=O)OC[C@H]3[C@@]2(C)CC[C@@H]1Br", ">", 11),
    ("CC(=O)OC[C@H]1[C@@]2(C)CC[C@H](Br)C(C)(C)[C@H]2CC[C@]1(C)O", ">", 2),
    ("CC1(C)[C@@H](Br)CC[C@@]2(C)[C@H]1CC[C@@](C)(O)[C@H]2CO", "=", 44),
]
